Values were extracted from the supplement of paper PMC13380429.

Please respond with reported cell viability for every item in the list.
# Tested on: HepG2
# procedureSummary: cell viability relative to DMSO; higher = less toxic
# runConditions: 72 h; 10000 nM
Structures can show the parent of a compound that is named as a salt.
Entry rule: numbers only, all in %.

Qu. For O=C(O)c1ccc2c(c1)nc(Nc1cccc(Cl)c1)c1ccncc12 , what is its reported cell viability?
Ans. 77

Qu. Also need COc1ccc(S(=O)(=O)N2CCCN(S(=O)(=O)c3ccc(OC)c(OC)c3)CC2)cc1OC , thanks.
Ans. 110

Qu. CCOC(=O)C(=O)Nc1cccc(OC)c1C(N)=O , same question.
Ans. 104

Qu. Next record, please: Cc1nc(NC(=O)N2CCC[C@H]2C(N)=O)sc1-c1csc(C(C)(C)C)n1
Ans. 73.3

Qu. // next record CCCn1c(=O)c2[nH]c(C3CCCC3)nc2n(CCC)c1=O
Ans. 91.5

Qu. Also N#Cc1cc(F)cc(-c2nc(-c3ccc(F)cn3)no2)c1 ?
Ans. 96.2

Qu. # repeat for O=c1[nH]nc2c3c(cccc13)N=C(CN1Cc3ccccc3C1)N2
Ans. 59.8

Qu. Same thing, different compound: COc1cc(COc2cc(N)c(Cl)cc2C(=O)CCC2CCN(CCNS(C)(=O)=O)CC2)cc(OC)c1
Ans. 73.1

Qu. Try CC(=O)[C@H]1CC[C@H]2[C@@H]3CC=C4C[C@@H](O)CC[C@]4(C)[C@H]3CC[C@]12C next.
Ans. 93.6

Qu. Another compound to check: CN(C)CCCOc1nn(Cc2ccccc2)c2ccccc12
Ans. 89.8

Qu. Cool, now O=C(Oc1ccc(Br)cc1)N1CCN2CCC1CC2
Ans. 108

Qu. // repeat for CCC(=O)NS(=O)(=O)c1ccc(-c2c(-c3ccccc3)noc2C)cc1 and report
Ans. 90.1

Qu. Quick one: c1ccc2sc(SNC3CCCCC3)nc2c1 [N-cyclohexyl-2-benzothiazolesulfenamide]
Ans. 100

Qu. Repeat with NCCCCCC(O)(P(=O)(O)O)P(=O)(O)O
Ans. 86.2

Qu. And COC(=O)N[C@@H](C)CNc1nccc(-c2cn(C(C)C)nc2-c2cc(Cl)cc(NS(C)(=O)=O)c2F)n1 ?
Ans. 11.1

Qu. Let us now turn to CCOC(=O)c1c(/C(C#N)=C\N)c2ccc(Cl)c(Cl)c2n1C
Ans. 93.2

Qu. Try this compound next: Cn1c(=O)c2c(ncn2CC(O)CO)n(C)c1=O (centres undefined)
Ans. 104

Qu. // same read-out, input: CC(=O)Nc1c(I)cc(I)c(C(=O)O)c1I
Ans. 107

Qu. Now consider CC(C)C[C@@H](N)C1(c2ccc(Cl)cc2)CCC1 .
Ans. 104

Qu. Try this compound next: CCc1ccc(/C=C2/SC(=S)NC2=O)cc1
Ans. 95.6

Qu. And then COc1cc([S+](C)[O-])ccc1-c1nc2cccnc2[nH]1 (centres undefined) , what is it?
Ans. 100

Qu. Please answer likewise for COc1cc(OC)c(/C=C/S(=O)(=O)Cc2ccc(OC)c(OP(=O)(O)O)c2)c(OC)c1
Ans. 38.7

Qu. Also need C/C=C/C=C/C(=O)O , thanks.
Ans. 108

Qu. What about O=C(OCCN1CCOCC1)c1cccnc1Nc1cccc(C(F)(F)F)c1 [morniflumate] ?
Ans. 88.4

Qu. Next compound: C[C@H](N)Cc1c[nH]cn1 [alpha-methylhistamine-dihydrobromide-(S)-(+)]
Ans. 94.8

Qu. Ok, now COc1cccc(-c2cc(F)ccc2[C@H]2Cc3nc(N)nc(C)c3C(=O)N2)n1
Ans. 0.5

Qu. Next entry: O=C1C[C@@H](c2ccc(O)cc2)Oc2cc(O)cc(O)c21
Ans. 99.9

Qu. And then O=C(Nc1cnn2ccc(N3CCC[C@@H]3c3cc(F)ccc3F)nc12)N1CC[C@H](O)C1 , what is it?
Ans. 103

Qu. Now this one: CCCn1c(=O)c2nc(C34CC5CC(CC3C5)C4)[nH]c2n(CCC)c1=O
Ans. 91.6

Qu. // next record CCCc1c(OCCCOc2ccc(OCC(=O)O)cc2)ccc(C(C)=O)c1O
Ans. 92.8

Qu. Moving on to the next compound: O=[N+]([O-])c1nccn1CC(O)CN1CCCCC1 (centres undefined)
Ans. 108

Qu. One more compound: Oc1ccc(C2(c3ccccc3F)CCC(F)(F)CC2)cc1
Ans. 104

Qu. Next entry: CC(C)(CO)Cc1cc(C(C)(C)C)c(O)c(C(C)(C)C)c1
Ans. 101

Qu. Please do the same for c1ccc(Oc2nc(NC3CCCCC3)c3[nH]cnc3n2)cc1 as well.
Ans. 99.4

Qu. Field entry: CC(C)[C@@H](C(=O)Nc1nccs1)c1ccc(Cl)cc1
Ans. 63.3

Qu. Cool, now COc1ccc(-c2coc3cc(O)cc(O)c3c2=O)cc1
Ans. 95.2

Qu. # iterate: O=C1c2ccc(Nc3ccc(F)cc3F)cc2CCc2ccc(OC[C@H](O)CO)cc21 [skepinone-L]
Ans. 75.2

Qu. Try this compound too: Cc1ccc(Oc2ccccc2-c2csc(N=C3NCCCN3)n2)c(C)c1
Ans. 75.8

Qu. Next record, please: Cc1nc2sccn2c(=O)c1CCN1CCC(=C(c2ccccc2)c2ccc(F)cc2)CC1
Ans. 95.8

----------
# Test system: U2OS
# procedureSummary: relative viability EC50 (midpoint between 100% and the lowest measured viability); higher = less toxic
# runConditions: 72 h
Hi there, I'd appreciate the recorded relative viability EC50 for every entry that follows.
A number alone suffices; assume nM.

Qu. relative viability EC50 for CC(C)C[C@@H](NC(=O)[C@H](C)NC(=O)CNC(=O)[C@@H](NC=O)C(C)C)C(=O)N[C@@H](C)C(=O)N[C@@H](C(=O)N[C@H](C(=O)N[C@@H](C(=O)N[C@@H](Cc1c[nH]c2ccccc12)C(=O)N[C@H](CC(C)C)C(=O)N[C@@H](Cc1c[nH]c2ccccc12)C(=O)N[C@H](CC(C)C)C(=O)N[C@@H](Cc1c[nH]c2ccccc12)C(=O)N[C@H](CC(C)C)C(=O)N[C@@H](Cc1c[nH]c2ccccc12)C(=O)NCCO)C(C)C)C(C)C)C(C)C ?
Ans. 466

Qu. Now this one: Cc1ccc(Nc2ncc3c(n2)N(C)C(=O)N(c2cc(NC(=O)c4cccc(C(F)(F)F)c4)ccc2C)C3)cn1
Ans. 156

----------
# Tested on: HepG2
# procedureSummary: cell viability relative to DMSO; higher = less toxic
# runConditions: 72 h; 10 nM
assayMetric: cell viability (%)
Please give a number only; it is taken to be in %.

Qu. What value of cell viability has been recorded for this entry: NCCCCCC(O)(P(=O)(O)O)P(=O)(O)O
Ans. 110

Qu. What do you get for N=C(N)SCCc1c[nH]cn1 ?
Ans. 111

Qu. Another compound to look at: CCOC(=O)[C@H](CCc1ccccc1)N[C@@H](C)C(=O)N1[C@H](C(=O)O)C[C@H]2CCCC[C@@H]21
Ans. 104

Qu. Queued: CCCCCCCCCCCCCCCC[n+]1ccccc1
Ans. 95.4

Qu. Another compound: C=C[C@@](C)(/C=C/c1ccc(O)cc1)CCC=C(C)C
Ans. 115

Qu. Item: NP(N)(=O)NC(=O)c1ccc(F)cc1 [flurofamide]
Ans. 98.6

Qu. // same read-out, input: O=C(NC1CCN(Cc2ccccc2)CC1)c1ccc(I)cc1
Ans. 108

Qu. Thanks! And Cc1cn([C@H]2C[C@H](N=[N+]=[N-])[C@@H](CO)O2)c(=O)[nH]c1=O ?
Ans. 109

Qu. Field entry: Cc1ncc(-c2csc(N=C(N)N)n2)[nH]1
Ans. 105

Qu. How about O=c1[nH]c2cc(C(F)(F)F)c(N3CCOCC3)cc2n(CP(=O)(O)O)c1=O ?
Ans. 104

Qu. What about CN(C)C1CCN(C(=O)c2ccc(NC(=O)Nc3ccc(-c4nc(N5CCOCC5)nc(N5CCOCC5)n4)cc3)cc2)CC1 ?
Ans. 108

Qu. // repeat for CCOc1ccc(C(=O)OCCN(CC)CC)cc1 and report
Ans. 116

Qu. Same for c1ccc2oc(C3=NCCN3)cc2c1
Ans. 98.3

Qu. Then this compound: CCC(=O)NS(=O)(=O)c1ccc(-c2c(-c3ccccc3)noc2C)cc1
Ans. 90

Qu. Can you check N=C(N)NCCSSCCNC(=N)N [guanidinoethyldisulfide-bicarbonate] next?
Ans. 101

Qu. Now the same for COc1cc(OC)nc(O[C@H](C(=O)O)C(OC)(c2ccccc2)c2ccccc2)n1
Ans. 98.8

Qu. And for CCc1ccc(/C=C2/SC(=S)NC2=O)cc1 ?
Ans. 106

Qu. Next entry: O=C(O[C@H]1[C@H](OC(=O)c2cccnc2)[C@@H](OC(=O)c2cccnc2)[C@H](OC(=O)c2cccnc2)[C@@H](OC(=O)c2cccnc2)[C@H]1OC(=O)c1cccnc1)c1cccnc1 [inositol-hexanicotinate]
Ans. 112

Qu. Input C[C@]12CCC(=O)C=C1CC[C@@H]1[C@@H]2CC[C@@]2(C)[C@H]1CC[C@]2(C)O
Ans. 90.8

Qu. Param item: COc1cc(OC)c(/C=C/S(=O)(=O)Cc2ccc(OC)c(OP(=O)(O)O)c2)c(OC)c1
Ans. 108

Qu. Could you do the same for N#C/C(=C1/SC[C@@H](c2ccc(Cl)cc2Cl)S1)n1ccnc1 , please?
Ans. 105

Qu. Would you mind doing O=C(O)C1=CCCN(CCON=C(c2ccccc2)c2ccccc2)C1 as well?
Ans. 100

Qu. Next record, please: COC(=O)Nc1nc2cc(C(=O)c3ccccc3)ccc2[nH]1
Ans. 109

Qu. Also, Cc1c(F)cccc1NC(=O)Nc1ccc(Cl)c(S(=O)(=O)[C@H]2CCCNC2)c1O please.
Ans. 93.1

Qu. # repeat for CC(=O)[C@H]1CC[C@H]2[C@@H]3CC=C4C[C@@H](O)CC[C@]4(C)[C@H]3CC[C@]12C
Ans. 96

Qu. Continue with COC(=O)N[C@@H](C)CNc1nccc(-c2cn(C(C)C)nc2-c2cc(Cl)cc(NS(C)(=O)=O)c2F)n1
Ans. 91.7

Qu. Param item: C=C(C)[C@@H]1[C@H]2OC(=O)[C@@H]1[C@]1(O)C[C@H]3O[C@]34C(=O)O[C@H]2[C@]14C
Ans. 108

Qu. Next up: Cc1ccc(Nc2c(F)cccc2Cl)c(CC(=O)O)c1
Ans. 103

Qu. Entry C[C@]12CC[C@H](O)CC1=CC[C@@H]1[C@@H]2CC[C@]2(C)C(n3cnc4ccccc43)=CC[C@@H]12 please
Ans. 102

Qu. Another compound: Oc1ccc(C(O)CNCCCCCCNCC(O)c2ccc(O)c(O)c2)cc1O (stereo not given) [hexoprenaline]
Ans. 104

Qu. Continue with NS(=O)(=O)c1cc2c(cc1Cl)N=CNS2(=O)=O [chlorothiazide]
Ans. 102

Qu. Lookup CC(C)C(=O)Oc1ccc(CO)cc1[C@H](CCN(C(C)C)C(C)C)c1ccccc1
Ans. 104

Qu. Queued: COc1cc2c(Nc3ccc(Cl)c(Cl)c3F)ncnc2cc1OC[C@@H]1C[C@@H]2CN(C)C[C@@H]2C1
Ans. 89.7

Qu. Also check O=C(/C=C/c1ccccc1)NC(NC(=S)Nc1cccc2cccnc12)C(Cl)(Cl)Cl (stereo not given)
Ans. 111

Qu. Further, for CCOC(=O)C(=O)Nc1cccc(OC)c1C(N)=O ?
Ans. 96.7
